# target under test: Lethal factor (Bacillus anthracis)
# Sequence (P15917 whole entry): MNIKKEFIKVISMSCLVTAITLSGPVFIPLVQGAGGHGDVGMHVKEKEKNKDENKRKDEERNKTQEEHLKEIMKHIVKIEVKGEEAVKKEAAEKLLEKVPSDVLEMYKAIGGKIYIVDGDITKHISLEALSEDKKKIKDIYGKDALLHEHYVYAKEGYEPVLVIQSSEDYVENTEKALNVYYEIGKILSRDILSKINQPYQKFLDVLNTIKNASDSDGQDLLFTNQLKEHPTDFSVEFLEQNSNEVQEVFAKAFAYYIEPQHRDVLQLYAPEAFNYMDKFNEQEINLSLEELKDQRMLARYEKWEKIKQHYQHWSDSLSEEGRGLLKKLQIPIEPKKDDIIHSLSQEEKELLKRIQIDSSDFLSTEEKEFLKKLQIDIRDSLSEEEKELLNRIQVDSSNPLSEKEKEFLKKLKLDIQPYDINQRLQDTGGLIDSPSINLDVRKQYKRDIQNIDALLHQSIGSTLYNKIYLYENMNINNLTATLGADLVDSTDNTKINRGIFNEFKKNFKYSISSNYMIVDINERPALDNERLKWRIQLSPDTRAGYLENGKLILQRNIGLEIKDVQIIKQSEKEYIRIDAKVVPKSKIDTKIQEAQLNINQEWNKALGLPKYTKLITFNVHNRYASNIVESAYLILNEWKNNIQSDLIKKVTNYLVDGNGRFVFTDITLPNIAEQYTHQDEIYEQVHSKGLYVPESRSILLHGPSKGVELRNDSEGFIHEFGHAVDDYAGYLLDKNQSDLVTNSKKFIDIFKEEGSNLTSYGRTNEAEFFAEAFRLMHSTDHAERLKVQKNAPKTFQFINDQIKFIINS
Known Ki of a selection of compounds

| line notation | Ki, µM |
| --- | --- |
| CCCCCCCC/C=C\CCCCCCCC(=O)NCc1ccc(O)c(O)c1 | 2.2 |
| CCCCCCCC/C=C\CCCCCCCC(=O)NCc1ccc(C(=O)NO)cc1 | 6.2 |

Reference source for all entries: ChEMBL document CHEMBL1144040
